experiment-summary: self-splicing fitness, log relative to wild type (ln ratio); higher = more splicing; Tetrahymena group I intron in knt gene, E. coli kanamycin selection, DiMSum; sequences stand for … in CUCUCU…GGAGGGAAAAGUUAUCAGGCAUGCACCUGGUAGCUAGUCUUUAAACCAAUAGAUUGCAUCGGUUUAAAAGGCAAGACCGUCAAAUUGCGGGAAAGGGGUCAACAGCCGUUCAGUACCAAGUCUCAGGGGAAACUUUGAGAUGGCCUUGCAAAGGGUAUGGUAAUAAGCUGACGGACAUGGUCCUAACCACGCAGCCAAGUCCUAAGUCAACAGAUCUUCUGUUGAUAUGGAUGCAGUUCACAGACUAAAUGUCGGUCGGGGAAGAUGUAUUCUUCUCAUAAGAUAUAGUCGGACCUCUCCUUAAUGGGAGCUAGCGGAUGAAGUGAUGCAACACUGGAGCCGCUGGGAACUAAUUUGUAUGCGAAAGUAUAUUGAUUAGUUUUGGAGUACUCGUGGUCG;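 also: selection with 25 µg/mL kanamycin versus none on LB agar overnight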
experimental-context: 37 °C
measured-quantity: self-splicing fitness (ln)

Entry under test: CCUAAGCAAUAUUACGUCUC . Its self-splicing fitness (ln) was -3.11

Entry under test: UGAUAGCAAUAUUACGAACU . Its self-splicing fitness (ln) was 0.402

Entry under test: UUCCAGCAAUAUUACGGAUU . Its self-splicing fitness (ln) was -1.01

Entry under test: UUACAGCAAUAUUACGUUAU . Its self-splicing fitness (ln) was -1.98

Entry under test: GUCGAGCAAUAUUACGUCCG . Its self-splicing fitness (ln) was -0.959

Entry under test: AUCAAGCAAUAUUACGGACU . Its self-splicing fitness (ln) was 0.456

Entry under test: GGUUAGCAAUAUUACGAUGA . Its self-splicing fitness (ln) was -0.286

Entry under test: CGCGAGCAAUAUUACGCCAG . Its self-splicing fitness (ln) was -2.75

Entry under test: UGUUAGCAAUAUUACGAAGG . Its self-splicing fitness (ln) was -2.16

Entry under test: AAGUAGCAAUAUUACGAACG . Its self-splicing fitness (ln) was -1.17

Entry under test: UUAGAGCAAUAUUACGGCGG . Its self-splicing fitness (ln) was 0.0643

Entry under test: AGCUAGCAAUAUUACGACAU . Its self-splicing fitness (ln) was -0.147

Entry under test: UCGAAGCAAUAUUACGUCGC . Its self-splicing fitness (ln) was -1.86

Entry under test: UUUUAGCAAUAUUACGCCGA . Its self-splicing fitness (ln) was -0.282

Entry under test: GCGGAGCAAUAUUACGCAUC . Its self-splicing fitness (ln) was -1.81

Entry under test: UGUCAGCAAUAUUACGGCCG . Its self-splicing fitness (ln) was -0.658

Entry under test: AACGAGCAAUAUUACGGUGA . Its self-splicing fitness (ln) was -1.99

Entry under test: AUAAAGCAAUAUUACGUACU . Its self-splicing fitness (ln) was 0.445

Entry under test: GGACAGCAAUAUUACGAACG . Its self-splicing fitness (ln) was -0.333

Entry under test: CAUUAGCAAUAUUACGCUGG . Its self-splicing fitness (ln) was -1.67

Entry under test: GGGCAGCAAUAUUACGCACU . Its self-splicing fitness (ln) was -1.42

Entry under test: GAGCAGCAAUAUUACGUAGA . Its self-splicing fitness (ln) was -1.03

Entry under test: AGCUAGCAAUAUUACGAUCU . Its self-splicing fitness (ln) was 0.532

Entry under test: GCUCAGCAAUAUUACGGCGA . Its self-splicing fitness (ln) was -1.36

Entry under test: AAGAAGCAAUAUUACGAAUU . Its self-splicing fitness (ln) was -0.992

Entry under test: AGCUAGCAAUAUUACGCCCC . Its self-splicing fitness (ln) was -0.157

Entry under test: AGAGAGCAAUAUUACGCAUC . Its self-splicing fitness (ln) was -1.91

Entry under test: GCGUAGCAAUAUUACGGGUA . Its self-splicing fitness (ln) was -0.91

Entry under test: CAUUAGCAAUAUUACGUUUA . Its self-splicing fitness (ln) was -1.48

Entry under test: CAUGAGCAAUAUUACGACGC . Its self-splicing fitness (ln) was -1.99

Entry under test: ACACAGCAAUAUUACGGCUA . Its self-splicing fitness (ln) was -0.218

Entry under test: GUGAAGCAAUAUUACGGUGA . Its self-splicing fitness (ln) was 0.58

Entry under test: GCCCAGCAAUAUUACGCGGU . Its self-splicing fitness (ln) was -3.02

Entry under test: GUUGAGCAAUAUUACGAAGA . Its self-splicing fitness (ln) was -2.71

----------
Assignment: determine reported self-splicing fitness (ln) for the given sequences.
experiment-summary: self-splicing fitness, log relative to wild type (ln ratio); higher = more splicing; Tetrahymena group I intron in knt gene, E. coli kanamycin selection, DiMSum; sequences stand for … in CUCUCU…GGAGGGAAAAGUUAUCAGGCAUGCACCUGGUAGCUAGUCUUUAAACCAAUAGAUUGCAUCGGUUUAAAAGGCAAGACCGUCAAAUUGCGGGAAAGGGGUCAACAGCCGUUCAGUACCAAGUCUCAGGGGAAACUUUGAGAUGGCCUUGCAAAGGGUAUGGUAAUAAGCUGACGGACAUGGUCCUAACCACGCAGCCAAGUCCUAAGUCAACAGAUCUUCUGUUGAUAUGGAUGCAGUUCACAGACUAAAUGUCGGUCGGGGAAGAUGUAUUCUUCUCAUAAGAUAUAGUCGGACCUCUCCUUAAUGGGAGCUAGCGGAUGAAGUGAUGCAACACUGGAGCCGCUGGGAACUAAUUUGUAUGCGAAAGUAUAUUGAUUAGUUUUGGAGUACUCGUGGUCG
experimental-context: 30 °C
Give your answer as a number; write no unit.

Entry under test: UGUCAGCAAUAUUACGGUUA . Its self-splicing fitness (ln) was -0.384

Entry under test: CUUCAGCAAUAUUACGUCGG . Its self-splicing fitness (ln) was -1.85

Entry under test: AAUGAGCAAUAUUACGACUU . Its self-splicing fitness (ln) was -0.422

Entry under test: CAAAAGCAAUAUUACGUUGU . Its self-splicing fitness (ln) was -3.3

Entry under test: AUUGAGCAAUAUUACGAGCG . Its self-splicing fitness (ln) was -3.1

Entry under test: ACACAGCAAUAUUACGGUCC . Its self-splicing fitness (ln) was -1.31

Entry under test: GUCCAGCAAUAUUACGUCUA . Its self-splicing fitness (ln) was -0.899

Entry under test: CCUAAGCAAUAUUACGUCUG . Its self-splicing fitness (ln) was -2.15

Entry under test: GAUGAGCAAUAUUACGAACU . Its self-splicing fitness (ln) was -0.431

Entry under test: AGUGAGCAAUAUUACGUACC . Its self-splicing fitness (ln) was -0.317

Entry under test: ACCGAGCAAUAUUACGGUUA . Its self-splicing fitness (ln) was -1.33

Entry under test: UAAGAGCAAUAUUACGUACG . Its self-splicing fitness (ln) was -1.42

Entry under test: CUGAAGCAAUAUUACGGAAG . Its self-splicing fitness (ln) was -1.37

Entry under test: CCCCAGCAAUAUUACGAUUU . Its self-splicing fitness (ln) was -3.43

Entry under test: AUAAAGCAAUAUUACGUCCC . Its self-splicing fitness (ln) was -0.201

Entry under test: AUAAAGCAAUAUUACGUAGG . Its self-splicing fitness (ln) was -2.93

Entry under test: CAAGAGCAAUAUUACGCUCA . Its self-splicing fitness (ln) was -2.63

Entry under test: UAUCAGCAAUAUUACGCAGC . Its self-splicing fitness (ln) was -2.17

Entry under test: GAUCAGCAAUAUUACGGGAC . Its self-splicing fitness (ln) was -1.51

Entry under test: AGCCAGCAAUAUUACGUGAC . Its self-splicing fitness (ln) was -3.29

Entry under test: GUAAAGCAAUAUUACGUUAG . Its self-splicing fitness (ln) was -1.01

Entry under test: CAUUAGCAAUAUUACGCUGG . Its self-splicing fitness (ln) was -2.7

Entry under test: CCGCAGCAAUAUUACGGUAC . Its self-splicing fitness (ln) was -3.8

Entry under test: UGCAAGCAAUAUUACGAGAG . Its self-splicing fitness (ln) was -3.4

Entry under test: CAGUAGCAAUAUUACGAGCG . Its self-splicing fitness (ln) was -0.475

Entry under test: GGUUAGCAAUAUUACGGAGC . Its self-splicing fitness (ln) was -2.27

Entry under test: CGAAAGCAAUAUUACGCACC . Its self-splicing fitness (ln) was -1.17

Entry under test: GUAAAGCAAUAUUACGGGCC . Its self-splicing fitness (ln) was -1.92

Entry under test: UGUCAGCAAUAUUACGGUCA . Its self-splicing fitness (ln) was -0.432

Entry under test: UGCCAGCAAUAUUACGAUCC . Its self-splicing fitness (ln) was -3.25

Entry under test: UAGAAGCAAUAUUACGGAUA . Its self-splicing fitness (ln) was -1.18

Entry under test: AGAUAGCAAUAUUACGUUCC . Its self-splicing fitness (ln) was -1.62

Entry under test: AAAAAGCAAUAUUACGGUCA . Its self-splicing fitness (ln) was -0.0389

Entry under test: CAUAAGCAAUAUUACGGACC . Its self-splicing fitness (ln) was -3.27

Entry under test: GAAUAGCAAUAUUACGUGUU . Its self-splicing fitness (ln) was -2.18

Entry under test: GUCGAGCAAUAUUACGGUAU . Its self-splicing fitness (ln) was -1.34

Entry under test: UCAAAGCAAUAUUACGCAUU . Its self-splicing fitness (ln) was -3.2

Entry under test: AGUUAGCAAUAUUACGAAAU . Its self-splicing fitness (ln) was -2.58

Entry under test: UCGAAGCAAUAUUACGCGCU . Its self-splicing fitness (ln) was -2.18

Entry under test: GUAGAGCAAUAUUACGUCCC . Its self-splicing fitness (ln) was -1.01

Entry under test: AUUUAGCAAUAUUACGUUGC . Its self-splicing fitness (ln) was -3.26

Entry under test: GCUAAGCAAUAUUACGUGUU . Its self-splicing fitness (ln) was -1.78

Entry under test: AGGAAGCAAUAUUACGACAG . Its self-splicing fitness (ln) was -2.74

Entry under test: ACUCAGCAAUAUUACGUAAC . Its self-splicing fitness (ln) was -2.79

Entry under test: AUGUAGCAAUAUUACGUAUA . Its self-splicing fitness (ln) was -1.99

Entry under test: GGGCAGCAAUAUUACGUGAC . Its self-splicing fitness (ln) was -0.997

Entry under test: GUGAAGCAAUAUUACGCUAG . Its self-splicing fitness (ln) was -0.945

Entry under test: GCAAAGCAAUAUUACGUAGA . Its self-splicing fitness (ln) was -1.64

Entry under test: CGAGAGCAAUAUUACGACGC . Its self-splicing fitness (ln) was -1.91

Entry under test: AAUCAGCAAUAUUACGUAUA . Its self-splicing fitness (ln) was -0.574

Entry under test: ACGGAGCAAUAUUACGUCCC . Its self-splicing fitness (ln) was -1.47

Entry under test: UAACAGCAAUAUUACGAUUC . Its self-splicing fitness (ln) was -1.68

Entry under test: UCACAGCAAUAUUACGCGUC . Its self-splicing fitness (ln) was -3.18

Entry under test: CUGAAGCAAUAUUACGAAUU . Its self-splicing fitness (ln) was -3.24

Entry under test: ACUAAGCAAUAUUACGGGGU . Its self-splicing fitness (ln) was -4.13

Entry under test: UCCGAGCAAUAUUACGCACA . Its self-splicing fitness (ln) was -3.21

Entry under test: AUCUAGCAAUAUUACGAUUU . Its self-splicing fitness (ln) was -0.629

Entry under test: CUUCAGCAAUAUUACGGAUC . Its self-splicing fitness (ln) was -1.38

Entry under test: CGAAAGCAAUAUUACGGCCC . Its self-splicing fitness (ln) was -1.42

Entry under test: UCCCAGCAAUAUUACGCUUC . Its self-splicing fitness (ln) was -2.73

Entry under test: UGCGAGCAAUAUUACGGAAA . Its self-splicing fitness (ln) was -3.19

Entry under test: ACGCAGCAAUAUUACGUCAU . Its self-splicing fitness (ln) was -3.44

Entry under test: ACACAGCAAUAUUACGAACA . Its self-splicing fitness (ln) was -1.69

Entry under test: GUCCAGCAAUAUUACGCUUG . Its self-splicing fitness (ln) was -1.57

Entry under test: CCGCAGCAAUAUUACGGUAU . Its self-splicing fitness (ln) was -4.73

Entry under test: UGAAAGCAAUAUUACGAGAU . Its self-splicing fitness (ln) was -2.93

Entry under test: UGACAGCAAUAUUACGUGGC . Its self-splicing fitness (ln) was -4.11
